Biological target: T1, His6-LC3A, biotinylated and immobilized on streptavidin agarose (human, UniProt Q9H492 1-121, chemically biotinylated (sites not given))
T1 construct: the species is not restated for this construct; The tag is placed at the N-terminus only because of the name His6-LC3A; also called immobilized LC3A; immobilized LC3; not shown: His6 tag
Test: radiolabeled peptide fusion incubated with immobilized LC3A
Bridge positions count the residues as written; N and C are the ends. Square brackets hold non-standard residues; d marks the D form. Primed or numbered codes have the meaning given here. Ends that are not written are not given here. * marks the point of attachment. DSG(3) = disuccinimidyl glutarate, bis-NHS cross-linker leaving a glutaryl bridge between two amines; puromycin = COc1ccc(C[C@H](N*)C(=O)N[C@H]2[C@@H](O)[C@H](n3cnc4c(N(C)C)ncnc43)O[C@@H]2CO)cc1; NMeA = CN[C@@H](C)C(=O)O; mRNA = not defined here
MEASUREMENT_KIND: % of radiolabeled peptide-fusions bound to immobilized LC3 (%)
State just the number; it will be interpreted in %.

Study these solved cases before continuing.
binder="MLSDIPVNDK-{puromycin-mRNA} (bridge N-10 via DSG(3); reading uncertain; also: radiolabeled) [Clone 4E radiolabeled mRNA-peptide fusion]" measured_value=7
binder="MFSHRVTL[NMeA]K (bridge N-10; not fully specified (C-terminus, bridges); also: radiolabeled) [Clone 25C radiolabeled mRNA-peptide fusion]" measured_value=13
binder="MYARSLRD[NMeA]K (bridge N-10; not fully specified (C-terminus, bridges); also: radiolabeled) [Clone 25A radiolabeled mRNA-peptide fusion]" measured_value=6
binder="MNARSLRD[NMeA]K (bridge N-10; not fully specified (C-terminus, bridges); also: radiolabeled) [Clone 25F radiolabeled mRNA-peptide fusion]" measured_value=5

Here is the next item to consider.
What does the record list as % of radiolabeled peptide-fusions bound to immobilized LC3 for MFPHRVTA[NMeA]K (bridge N-10; not fully specified (C-terminus, bridges); also: radiolabeled, Tested as an individual in vitro translated peptide fusion from the SUPR mRNA display selection; also called Peptide 4B) [Clone 4B radiolabeled mRNA-peptide fusion] ?
86
